B1: Osa-1-4 twister ribozyme (parent)
chain: CCGCCUAACACUGCCAAUGCCGGUCCCAAGCCCGGAUAAAAGUGGAGGGGGCGG

- Variants of: B1
- EXPERIMENT: self-cleavage, relative activity (ratio to wild type); higher = more cleavage; co-transcriptional
Just so you know, the groups by self-cleavage go like this: class 0 = under 0.06, class 1 = from 0.06 up to 0.1, class 2 = 0.1 and over

{"POLYMER_SEQUENCE": "CCGCCUAACACUGACAAUGCCGGUUCCAAGCCCGGAUAAAAGUGGAGGGGGCGG [C14A C25U]", "CLASS_NAME": "class 1"}
{"POLYMER_SEQUENCE": "CCGCCUAACACUGCCAAUGCAGGUCCCAAGCCCGAAUAAAAGUGGAGGGGGCGG [C21A G35A]", "CLASS_NAME": "class 2"}
{"POLYMER_SEQUENCE": "CCGCCUAACACUGCCAAUGCCGGUCCCAAGCCCGGAAAAAAGUGGAGGGGACGG [G51A U37A]", "CLASS_NAME": "class 2"}
{"POLYMER_SEQUENCE": "CCGCCUAACACUGUCAAUGCCGGUCACAAGCCCGGAUAAAAGUGGAGGGGGCGG [C14U C26A]", "CLASS_NAME": "class 0"}
{"POLYMER_SEQUENCE": "CCGCCUAACACUGCCAAUGCCGGUCACCAGCCCGGAUAAAAGUGGAGGGGGCGG [A28C C26A]", "CLASS_NAME": "class 0"}
{"POLYMER_SEQUENCE": "CCGCCUAACACUGCCGAUGCCGGUCCCAAGCCCCGAUAAAAGUGGAGGGGGCGG [A16G G34C]", "CLASS_NAME": "class 2"}
{"POLYMER_SEQUENCE": "CCGCCUAACACUGCCAAUGCCGGUCCCAAGCCCGGAUAAGAGUGGAAGGGGCGG [A40G G47A]", "CLASS_NAME": "class 2"}
{"POLYMER_SEQUENCE": "CCGCCUAACACUGCCAAUGACAGUCCCAAGCCCGGAUAAAAGUGGAGGGGGCGG [C20A G22A]", "CLASS_NAME": "class 2"}
{"POLYMER_SEQUENCE": "CCGCCUAACACUGCCAAUGGCGGUCCCAAGCCCGGAUAAAAGUGGAGAGGGCGG [C20G G48A]", "CLASS_NAME": "class 0"}
{"POLYMER_SEQUENCE": "CCGCCUAACACUGCCAAUGCCGGUCCCAAGCGCUGAUAAAAGUGGAGGGGGCGG [C32G G34U]", "CLASS_NAME": "class 1"}
{"POLYMER_SEQUENCE": "CCGCCUAACACUGCCAAUGACGGUCCCAAGCCCGGAUAAAAGUGGAGGGGGCGG [C20A]", "CLASS_NAME": "class 2"}
{"POLYMER_SEQUENCE": "CCGCCUAACACUGCCAAUGCCGGUCCCAAGCCCGGAUAAAAAUGGCGGGGGCGG [A46C G42A]", "CLASS_NAME": "class 0"}
{"POLYMER_SEQUENCE": "CCGCCUAACACUGCCAAUGCCGGUCCCAAGCCCGGAUCAAAGUGGAGGGGGCGC [A38C G54C]", "CLASS_NAME": "class 2"}
{"POLYMER_SEQUENCE": "CCGCCUAACAGUGCCAAUGCCGGUCCCAGGCCCGGAUAAAAGUGGAGGGGGCGG [A29G C11G]", "CLASS_NAME": "class 1"}
{"POLYMER_SEQUENCE": "CCGCCUAACACUGCUAAUCCCGGUCCCAAGCCCGGAUAAAAGUGGAGGGGGCGG [C15U G19C]", "CLASS_NAME": "class 2"}
{"POLYMER_SEQUENCE": "CCGCCUAACACUGCCAAUGCCGGUCCCAAUCUCGGAUAAAAGUGGAGGGGGCGG [C32U G30U]", "CLASS_NAME": "class 0"}
{"POLYMER_SEQUENCE": "CCGCCUAACACUGCCAAUGCCGAUCCCAAGCCCGGAUAAAAGUGGAAGGGGCGG [G23A G47A]", "CLASS_NAME": "class 1"}
{"POLYMER_SEQUENCE": "CCGCCUAACACUGCCAAUGCCGGUCCCAAGCCCGGAUAAAACUGUAGGGGGCGG [G42C G45U]", "CLASS_NAME": "class 0"}
{"POLYMER_SEQUENCE": "CCGCCUAUCACGGCCAAUGCCGGUCCCAAGCCCGGAUAAAAGUGGAGGGGGCGG [A8U U12G]", "CLASS_NAME": "class 1"}
{"POLYMER_SEQUENCE": "CCGCCUAACACUGCCAAUGCCGGACCCAAGCCCGGAUAAAAGUGGCGGGGGCGG [A46C U24A]", "CLASS_NAME": "class 0"}
{"POLYMER_SEQUENCE": "CCGCCUAACACUGCCAAUGCCGGUCCCAGGCCCGGUUAAAAGUGGAGGGGGCGG [A29G A36U]", "CLASS_NAME": "class 2"}

From: the RNAGym collection of RNA variant scans (doi:10.1002/anie.201605470)
